Tested on: Staphylococcus aureus
Assay: Antibacterial activity against Staphylococcus aureus MTCC 96 assessed as inhibition of visual growth after 24 hrs
Type: functional
Details: MTCC 96, 24 h
readout.name: MIC
Put down the number, then write its unit next to it.

compound | system.name | readout.name | result
C=CCN1C(=O)[C@]2(c3ccccc31)[C@H](c1cn(-c3ccccc3)nc1-c1ccccc1)[C@@](C#N)(C(=O)c1c[nH]c3ccccc13)C1CSCN12 (stereo not given in full) | Staphylococcus aureus | MIC | 250 µg/mL
N#C[C@]1(C(=O)c2c[nH]c3ccccc23)C2CCCN2[C@]2(C(=O)Nc3ccccc32)[C@@H]1c1cn(-c2ccccc2)nc1-c1ccccc1 (stereo not given in full) | Staphylococcus aureus | MIC | 31.2 µg/mL
CN1C[C@](C#N)(C(=O)c2c[nH]c3ccccc23)[C@@H](c2cn(-c3ccccc3)nc2-c2ccccc2)[C@@]12C(=O)Nc1ccccc12 | Staphylococcus aureus | MIC | 500 µg/mL

Please look at the items below and tell me MIC for each one, in order.
1. CN1C(=O)[C@]2(c3ccccc31)[C@H](c1cn(-c3ccccc3)nc1-c1ccccc1)[C@@](C#N)(C(=O)c1c[nH]c3ccccc13)C1CCCN12 (stereo not given in full)
2. C=CCN1C(=O)[C@]2(c3ccccc31)[C@H](c1cn(-c3ccccc3)nc1-c1ccccc1)[C@@](C#N)(C(=O)c1c[nH]c3ccccc13)CN2C

[out]
1. 250 µg/mL
2. 250 µg/mL
